Value source: PubChem BioAssay (NCI)

# Tested on: HCT-15 colon
# assay: NCI tumour cell line growth inhibition, 48 h
This listing pairs compounds with measured TGI.

compound: CC(=O)Nc1c(I)c(C(=O)O)c(I)c(N(C)C(C)=O)c1I
studyTarget: HCT-15 colon
TGI: > 100 µM
--
compound: CC1=C(S(=O)c2ccc(C)cc2)CCC2(CCCCO2)O1 (stereo not given)
studyTarget: HCT-15 colon
TGI: > 100 µM
--
compound: Cc1ccc(S(=O)(=O)N/N=C2/C3C(CC2(C)C)C2(C)CCCC3(C)C2O)cc1 (stereo not given)
studyTarget: HCT-15 colon
TGI: 60 µM
--
compound: CN(C(=O)C12C3C4C1C1C2C3C41C(=O)N(C)C(C)(C)C)C(C)(C)C (stereo not given)
studyTarget: HCT-15 colon
TGI: > 50 µM
--
compound: O=C(Nc1sccc1S(=O)(=O)c1ccc(Cl)cc1)c1ccc(Cl)cc1Cl
studyTarget: HCT-15 colon
TGI: > 100 µM
--
compound: O=C1c2cccc3cccc(c23)C(=O)N1CC#Cc1ccc2c3c(cccc13)C(=O)N(CCN1CCNCC1)C2=O
studyTarget: HCT-15 colon
TGI: > 100 µM
--
compound: O=S(=O)(c1ccccc1)n1cnc(CCc2ccccc2)n1
studyTarget: HCT-15 colon
TGI: > 100 µM
--
compound: Cc1cc(NS(=O)(=O)c2ccc(NC(=O)COc3ccc(-c4cc5ccccc5[nH]4)cc3)cc2)no1
studyTarget: HCT-15 colon
TGI: 7.35 µM
--
compound: C[C@]12CC[C@H]3[C@@H](CC=C4C[C@@H](O)CC[C@@]43C)[C@@H]1C[C@H](N1CCOCC1)[C@@H]2O
studyTarget: HCT-15 colon
TGI: > 100 µM
--
compound: O=NNc1ccc(Sc2ccc3ccccc3c2)cn1
studyTarget: HCT-15 colon
TGI: 60 µM
